Target: NAMPT (Homo sapiens)
Construct: His tag; host or cells: E. coli
Test: Biochemical inhibition assay: NAMPT enzymatic reaction, NMN quantified by mass spectrometry
Details: NAMPT enzymatic reaction; read-out: Biochem IC50
Labelling field: enter yes if recorded IC50 is less than 7 nM. Enter no if it equals or exceeds that cut-off.

Ask: Below 7 nM on IC50? Entry CCc1cccc(S(=O)(=O)c2ccc(CNC(=O)c3ccc4nccn4c3)cc2)c1
Result: yes

Ask: Then CCOc1cc(Cl)ccc1S(=O)(=O)c1ccc(CNC(=O)c2cc3cnccc3[nH]2)cc1 ?
Result: no

Ask: Then O=C(COc1cccnc1)Nc1ccc(S(=O)(=O)N2CCCCC2)cc1 ?
Result: yes

Ask: Then COc1cc(S(=O)(=O)c2ccc(CNC(=O)c3cc4ccncc4o3)cc2)ccc1Cl ?
Result: yes

Ask: Then O=C(NCc1ccc(S(=O)(=O)c2cccc(C(F)(F)F)c2)cc1)c1cc2ccncc2s1 ?
Result: yes

Ask: Then O=C(NCc1ccc(S(=O)(=O)c2cccc(F)c2)cc1)c1cnc2nccn2c1 ?
Result: yes

Ask: Then N#Cc1ccccc1S(=O)(=O)c1ccc(CNC(=O)c2cc3ccncc3s2)cc1 ?
Result: no

* * *

Molecular target: NAMPT (Homo sapiens, UniProt P43490)
Construct: His tag; host or cells: E. coli
Sequence (P43490 whole entry): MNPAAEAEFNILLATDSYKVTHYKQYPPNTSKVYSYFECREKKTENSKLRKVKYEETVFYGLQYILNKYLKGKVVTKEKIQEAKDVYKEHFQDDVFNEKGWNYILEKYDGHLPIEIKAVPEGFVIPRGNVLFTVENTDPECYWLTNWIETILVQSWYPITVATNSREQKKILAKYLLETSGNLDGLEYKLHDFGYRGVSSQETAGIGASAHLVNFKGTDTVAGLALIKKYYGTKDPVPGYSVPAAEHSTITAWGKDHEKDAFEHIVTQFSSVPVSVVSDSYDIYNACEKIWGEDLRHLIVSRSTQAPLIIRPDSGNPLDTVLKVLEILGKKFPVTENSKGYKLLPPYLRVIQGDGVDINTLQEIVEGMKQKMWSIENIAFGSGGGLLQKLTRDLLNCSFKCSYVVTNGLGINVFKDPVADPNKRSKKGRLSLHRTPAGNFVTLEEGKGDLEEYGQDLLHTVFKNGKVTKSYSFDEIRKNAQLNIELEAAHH
Test: Biochemical inhibition assay: NAMPT enzymatic reaction, NMN quantified by mass spectrometry
Conditions: NAMPT enzymatic assay; read-out: Biochem IC50
Consider the following compounds; for each one, report its pIC50.
Answer as the number alone; pIC50 is minus log10 of concentration in mol/L.

Ask: Given the entry O=C(NCc1ccc(S(=O)(=O)c2cccc3c2OCC3)cc1)c1cnc2nccn2c1 , report its measured pIC50.
Result: 8.68

Ask: Then Cn1ncc2c(S(=O)(=O)c3ccc(CNC(=O)c4cc5ccncc5s4)cc3)cccc21 ?
Result: 8.96

Ask: Then O=C(NCc1ccc(S(=O)(=O)c2cccc(C(F)(F)F)c2)cc1)c1ccc2ncsc2c1 ?
Result: 8.22

Ask: Then O=C(NCc1ccc(S(=O)(=O)c2cc(F)cc(N3CCOCC3)c2)cc1)c1cc2cnccc2[nH]1 ?
Result: 8.40

Ask: Then CC(C)COc1cccc(S(=O)(=O)c2ccc(CNC(=O)c3cc4cnccc4[nH]3)cc2)c1 ?
Result: 7.49

Ask: Then O=C(NCc1ccc(S(=O)(=O)c2cnc(N3CCCC3)s2)cc1)c1cnc2nccn2c1 ?
Result: 8.54

Ask: Then CN(C)CCOc1cccc(S(=O)(=O)c2ccc(CNC(=O)c3cc4ccncc4o3)cc2)c1 ?
Result: 7.93

Ask: Then Cc1ccc(Cl)c(S(=O)(=O)c2ccc(CNC(=O)c3cnc4[nH]ncc4c3)cc2)c1F ?
Result: 6.95

Ask: Then O=C(NCc1ccc(S(=O)(=O)c2cccc(OC(F)F)c2)cc1)c1cc2ccncc2o1 ?
Result: 8.55

Ask: Then O=C(NCc1ccc(S(=O)(=O)c2ccc(C(F)(F)F)cc2F)cc1)c1ccc2nccn2c1 ?
Result: 7.81

Ask: Then CC(C)NC(=O)c1cccc(S(=O)(=O)c2ccc(CNC(=O)c3cc4ccncc4o3)cc2)c1 ?
Result: 7.82

Ask: Then O=C(NCc1ccc(S(=O)(=O)c2cccc3c2OCO3)cc1)c1cc2ccncc2o1 ?
Result: 7.59

Ask: Then O=C(NCc1ccc(S(=O)(=O)c2cccc(N3CCOCC3)c2)cc1)c1cnc2[nH]ncc2c1 ?
Result: 7.78

Ask: Then CCS(=O)(=O)c1cccc(S(=O)(=O)c2ccc(CNC(=O)c3cc4cnccc4[nH]3)cc2)c1 ?
Result: 7.77

Ask: Then COc1ccc(C(F)(F)F)cc1S(=O)(=O)c1ccc(CNC(=O)c2cnc3nccn3c2)cc1 ?
Result: 8.17

Ask: Then O=C(NCc1ccc(S(=O)(=O)c2cccc3c2sc2ccccc23)cc1)c1cnc2nccn2c1 ?
Result: 8.74

Ask: Then O=C(NCc1ccc(S(=O)(=O)c2ccc(F)cc2C(F)(F)F)cc1)c1cc2cnccc2[nH]1 ?
Result: 7.57

Ask: Then O=C(NCc1ccc(S(=O)(=O)c2ccc(N3CCOCC3)nc2)cc1)c1cc2ccncc2o1 ?
Result: 8.70

Ask: Then Cn1c(S(=O)(=O)c2ccc(CNC(=O)c3cc4ccncc4s3)cc2)cc2ccccc21 ?
Result: 8.28

Ask: Then O=C(NCc1ccc(S(=O)(=O)c2cnc3n2CCCCC3)cc1)c1cc2ccncc2o1 ?
Result: 8.22

Ask: Then CNC(=O)c1cccc(S(=O)(=O)c2ccc(CNC(=O)c3cnc4nccn4c3)cc2)c1 ?
Result: 8.43

Ask: Then O=C(NCc1ccc(S(=O)(=O)c2ccc(-n3cccn3)cc2F)cc1)c1cnc2nccn2c1 ?
Result: 8.66

Ask: Then O=C(NCc1ccc(S(=O)(=O)c2ccc(Cl)cc2C(F)(F)F)cc1)c1cc2ccncc2o1 ?
Result: 8.01

Ask: Then O=C(NCc1ccc(S(=O)(=O)c2cnc3ccccc3c2)cc1)c1cnc2[nH]ncc2c1 ?
Result: 8.28

Ask: Then CCN(CC)C(=O)c1cc(F)cc(S(=O)(=O)c2ccc(CNC(=O)c3cc4cnccc4[nH]3)cc2)c1 ?
Result: 8.03

Ask: Then O=C(NCc1ccc(S(=O)(=O)c2ccc(F)cc2C(F)(F)F)cc1)c1cnc2nccn2c1 ?
Result: 7.73

Ask: Then O=C(NCc1ccc(S(=O)(=O)c2ccc(F)c(OCC(F)(F)F)c2)cc1)c1cc2ccncc2s1 ?
Result: 8.48

Ask: Then O=C(NCc1ccc(S(=O)(=O)c2cc(C(F)(F)F)ccn2)cc1)c1ccc2nccn2c1 ?
Result: 7.71

* * *

Consider the following molecules; for each one, report its IC50.
Biological target: NAMPT (Homo sapiens, UniProt P43490)
Construct: His tag; host or cells: E. coli
Assay: Biochemical inhibition assay: NAMPT enzymatic reaction, NMN quantified by mass spectrometry
Details: NAMPT enzymatic reaction; read-out: Biochem IC50
# output: bare number, implied unit nM

Ask: Given the entry CCc1ccc(S(=O)(=O)c2ccc(CNC(=O)c3cc4cnccc4[nH]3)cc2)cc1 , report its measured IC50.
Result: 8

Ask: Then COc1ccc(S(=O)(=O)c2ccc(CNC(=O)c3cnc4[nH]ncc4c3)cc2)cc1Cl ?
Result: 4

Ask: Then Cc1ccc(S(=O)(=O)c2ccc(CNC(=O)c3cc4ccncc4o3)cc2)cc1Cl ?
Result: 52.8

Ask: Then CCOc1ccccc1S(=O)(=O)c1ccc(CNC(=O)c2cc3cnccc3[nH]2)cc1 ?
Result: 11

Ask: Then COc1cc(C)cc(S(=O)(=O)c2ccc(CNC(=O)c3cc4ccncc4s3)cc2)c1 ?
Result: 2.4

Ask: Then COc1ccc(C)cc1S(=O)(=O)c1ccc(CNC(=O)c2ccc3nccn3c2)cc1 ?
Result: 43.1

Ask: Then COc1cc(S(=O)(=O)c2ccc(CNC(=O)c3cc4ccncc4o3)cc2)ccc1C ?
Result: 4.6

Ask: Then CCCOc1ccc(S(=O)(=O)c2ccc(CNC(=O)c3cnc4[nH]ncc4c3)cc2)cc1F ?
Result: 11.6

Ask: Then COc1ccc(F)c(F)c1S(=O)(=O)c1ccc(CNC(=O)c2cc3cnccc3[nH]2)cc1 ?
Result: 204

Ask: Then Cc1ccc(Cl)c(S(=O)(=O)c2ccc(CNC(=O)c3ccc4nccn4c3)cc2)c1 ?
Result: 5.6

Ask: Then COc1cc(C)cc(S(=O)(=O)c2ccc(CNC(=O)c3cc4ccncc4o3)cc2)c1OC ?
Result: 15.2

Ask: Then O=C(NCc1ccc(S(=O)(=O)c2cccc(O)c2)cc1)c1ccc2nccn2c1 ?
Result: 5

Ask: Then COc1cc(C)cc(OC)c1S(=O)(=O)c1ccc(CNC(=O)c2cc3cnccc3[nH]2)cc1 ?
Result: 16

Ask: Then CCOc1cccc(S(=O)(=O)c2ccc(CNC(=O)c3cnc4[nH]ncc4c3)cc2)c1 ?
Result: 14.6

Ask: Then COc1c(Cl)cccc1S(=O)(=O)c1ccc(CNC(=O)c2cc3ccncc3o2)cc1 ?
Result: 19.2

Ask: Then Cc1ccc(S(=O)(=O)c2ccc(CNC(=O)c3ccc4nccn4c3)cc2)cc1 ?
Result: 17.6

Ask: Then Cc1c(F)cccc1S(=O)(=O)c1ccc(CNC(=O)c2cc3ccncc3o2)cc1 ?
Result: 13.2

Ask: Then CCOc1ccc(S(=O)(=O)c2ccc(CNC(=O)c3ccc4nccn4c3)cc2)cc1 ?
Result: 4.5

Ask: Then COc1cc(F)ccc1S(=O)(=O)c1ccc(CNC(=O)c2cc3cnccc3[nH]2)cc1 ?
Result: 31

Ask: Then CCc1ccc(S(=O)(=O)c2ccc(CNC(=O)c3ccc4nccn4c3)cc2)cc1 ?
Result: 16.5

Ask: Then CCCCOc1cc(F)ccc1S(=O)(=O)c1ccc(CNC(=O)c2cc3cnccc3[nH]2)cc1 ?
Result: 31.1

Ask: Then Cc1cc(Cl)ccc1S(=O)(=O)c1ccc(CNC(=O)c2cc3cnccc3[nH]2)cc1 ?
Result: 27

Ask: Then Cc1ccc(S(=O)(=O)c2ccc(CNC(=O)c3cnc4[nH]ncc4c3)cc2)cc1F ?
Result: 11.7

Ask: Then O=C(NCc1ccc(S(=O)(=O)c2cnc3ccccc3c2)cc1)c1cc2ccncc2s1 ?
Result: 3

Ask: Then NS(=O)(=O)c1cccc(S(=O)(=O)c2ccc(CNC(=O)c3ccc4nccn4c3)cc2)c1 ?
Result: 10.3

Ask: Then O=C(NCc1ccc(S(=O)(=O)c2ccc(Cl)c(C(F)(F)F)c2)cc1)c1cc2ccncc2s1 ?
Result: 10

Ask: Then COc1cc(S(=O)(=O)c2ccc(CNC(=O)c3cnc4nccn4c3)cc2)ccc1C ?
Result: 1.3

Ask: Then CCCOc1ccc(S(=O)(=O)c2ccc(CNC(=O)c3cc4ccncc4o3)cc2)cc1 ?
Result: 49.5

Ask: Then CCCCOc1ccc(S(=O)(=O)c2ccc(CNC(=O)c3cc4ccncc4s3)cc2)cc1 ?
Result: 3.6

Ask: Then COc1ccc(OC)c(S(=O)(=O)c2ccc(CNC(=O)c3ccc4nccn4c3)cc2)c1 ?
Result: 20.2

Ask: Then COc1ccc(S(=O)(=O)c2ccc(CNC(=O)c3cc4cnccc4[nH]3)cc2)cc1F ?
Result: 5
